Provide the reported EC50 of each item.
target_of_assay: human EDG8 (S1PR5) receptor (Homo sapiens, UniProt Q9H228)
Construct: carries the transgenes human EDG8 (S1PR5) receptor (Acession number NP_110387.1)
Sequence (Q9H228 whole entry): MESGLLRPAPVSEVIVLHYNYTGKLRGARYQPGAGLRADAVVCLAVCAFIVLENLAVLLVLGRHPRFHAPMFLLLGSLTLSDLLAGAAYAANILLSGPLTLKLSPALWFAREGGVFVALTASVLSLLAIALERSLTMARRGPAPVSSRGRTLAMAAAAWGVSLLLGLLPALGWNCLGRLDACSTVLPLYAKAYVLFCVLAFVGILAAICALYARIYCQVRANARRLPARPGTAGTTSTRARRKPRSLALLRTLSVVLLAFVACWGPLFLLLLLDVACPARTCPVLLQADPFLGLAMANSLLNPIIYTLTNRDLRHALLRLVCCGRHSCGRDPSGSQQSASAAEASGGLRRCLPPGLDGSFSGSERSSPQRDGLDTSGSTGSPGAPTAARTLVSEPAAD
assay_summary: Aequorin assay, agonist potency, CHO-A21-EDG8#12 cells
experimental_context: agonist mode, aequorin luminescence; read-out: S1P5 EC50 range #

GET /values?item= O=C(O)CN1CC2(Cc3ccc(OCc4cccc(Cl)c4)cc3C2)C1 &system= human EDG8 (S1PR5) receptor (Homo sapiens, UniProt Q9H228) returns EC50: ≤ 10 nM

Form: item O=C(O)C1(CN2CC3(Cc4ccc(OCc5c(F)cccc5C5CC5)cc4C3)C2)CC1 ; test system human EDG8 (S1PR5) receptor (Homo sapiens, UniProt Q9H228); EC50: ≤ 10 nM

Record O=C(O)CN1CC2(Cc3ccc(OCCc4c(Cl)cccc4Cl)cc3C2)C1 has human EDG8 (S1PR5) receptor (Homo sapiens, UniProt Q9H228) EC50 equal to ≤ 10 nM

Sample O=C(O)C1(CN2CC3(Cc4ccc(OCc5ccccc5Cl)cc4C3)C2)CC1 , system: human EDG8 (S1PR5) receptor (Homo sapiens, UniProt Q9H228). Its EC50 is 1000 to 10000 nM

The reported EC50 value, human EDG8 (S1PR5) receptor (Homo sapiens, UniProt Q9H228), for O=C(O)C1(CN2CC3(Cc4ccc(OCCc5ccccc5Cl)cc4C3)C2)CC1 reads 100 to 1000 nM

Summary line: O=C(O)C1(CN2CC3(Cc4ccc(OCCc5c(Cl)cccc5Cl)cc4C3)C2)CC1 , human EDG8 (S1PR5) receptor (Homo sapiens, UniProt Q9H228), reported EC50 = ≤ 10 nM

For O=C(O)C1CC(N2CC3(Cc4ccc(OCC5CCCOC5)cc4C3)C2)C1 (centres unmarked) on human EDG8 (S1PR5) receptor (Homo sapiens, UniProt Q9H228), measured EC50 was 1000 to 10000 nM

Entry O=C(O)C1CC(N2CC3(Cc4ccc(C#Cc5ccc(OC6CCCC6)nc5)cc4C3)C2)C1 (centres unmarked) under human EDG8 (S1PR5) receptor (Homo sapiens, UniProt Q9H228) had EC50 of ≤ 10 nM

Simply: CCc1cccc(Cl)c1COc1ccc2c(c1)OC1(C2)CN(CC(=O)O)C1 , human EDG8 (S1PR5) receptor (Homo sapiens, UniProt Q9H228), EC50 = ≤ 10 nM

Field EC50 (system: human EDG8 (S1PR5) receptor (Homo sapiens, UniProt Q9H228)) for entry O=C(O)C1(CN2CC3(Cc4ccc(OCc5cc(F)ccc5C(F)(F)F)cc4C3)C2)CC1 = 1000 to 10000 nM

Value (EC50, human EDG8 (S1PR5) receptor (Homo sapiens, UniProt Q9H228)) for record O=C(O)C1(CN2CC3(Cc4ccc(OCc5c(Cl)cccc5C(F)(F)F)cc4C3)C2)CC1 = ≤ 10 nM

Known value: human EDG8 (S1PR5) receptor (Homo sapiens, UniProt Q9H228) EC50 of the compound CC1CCC(C#Cc2ccc3c(c2)CC2(C3)CN(CC(=O)O)C2)CC1 (centres unmarked) equals ≤ 10 nM

Lab entry: human EDG8 (S1PR5) receptor (Homo sapiens, UniProt Q9H228) assay, compound O=C(O)C1(CN2CC3(Cc4ccc(OCC5CCCCC5)cc4C3)C2)CC1 , EC50 = 100 to 1000 nM

The observed EC50 for COc1ccc(COc2ccc3c(c2)CC2(C3)CN(C3CC(C(=O)O)C3)C2)c(C)n1 (centres unmarked) when tested with human EDG8 (S1PR5) receptor (Homo sapiens, UniProt Q9H228) stands at 1000 to 10000 nM

Result for CC(Oc1ccc(C#Cc2ccc3c(c2)CC2(C3)CN(CC3(C(=O)O)CC3)C2)cn1)C(F)(F)F (centres unmarked) , tested on human EDG8 (S1PR5) receptor (Homo sapiens, UniProt Q9H228), EC50: ≤ 10 nM

The compound O=C(O)CN1CC2(Cc3ccc(OCc4c(F)cccc4C4CC4)cc3C2)C1 , when measured on human EDG8 (S1PR5) receptor (Homo sapiens, UniProt Q9H228), yielded EC50 of ≤ 10 nM

Known value: human EDG8 (S1PR5) receptor (Homo sapiens, UniProt Q9H228) EC50 of the compound CCOc1ccc(COc2ccc3c(c2)CC2(C3)CN(C3CC(C(=O)O)C3)C2)c(F)c1F (centres unmarked) equals 1000 to 10000 nM

Cited source: patent US20200055817A1
